assay-remarks: Mean residence time in healthy human at 5 mg, po administered as single dose coadministered with 100 mg of ritonavir
Type: ADME, organism-based
details: in vivo
experimental-readout: MRT (h)
Hi! Could you send only the number? It should be in h, unit omitted.

Endpoint output: MRT of CCN1c2ncc(CCOc3cc[n+]([O-])c4ccccc34)cc2C(=O)N(C)c2cccnc21 [BILR 355] . Value? 24.8

###

assay-remarks: AUC (0 to last) in healthy human at 12.5 mg, po administered as single dose coadministered with 100 mg of ritonavir
Type: ADME, organism-based
Parameters: dose 12.5 mg, time 0 - last, route oral
details: plasma
experimental-readout: AUC(0-t) (ng·h/mL)
Hi! Could you send only the number? It should be in ng·h/mL, unit omitted.

Endpoint output: AUC(0-t) of CCN1c2ncc(CCOc3cc[n+]([O-])c4ccccc34)cc2C(=O)N(C)c2cccnc21 . Value? 1680

Data origin, for the record: ChEMBL document CHEMBL1629563
